The values you see were collected from the RepoRT retention time repository (doi:10.1021/acs.analchem.1c00972).

procedure_text: RP, Waters ACQUITY UPLC BEH C18, 100 × 1 mm, 1.7 µm, 50 °C, 0.3 mL/min, estimated dead time 0.17 min; A: water + 0.1% formic acid + 20 mM ammonium formate; B: methanol + 0.1% formic acid + 20 mM ammonium formate; gradient (min/%B) 0/0 15/100 21/100 22/0 30/0
setup_conditions: stereoisomer not certain
Here the recorded LC retention time is given for each entry.
Could you give the number and then its unit, please?

# annotated cases, reported LC retention time shown
• CC(CN(C)C)CN1c2ccccc2CCc2ccccc21 (stereo not drawn) [Trimipramine] = 12.9 min
• O=C(O)c1cccc(C(=O)O)c1 [Isophthalic acid] = 8.71 min
• CCOC(=O)c1ccc(O)cc1 [Ethylparaben] = 11.6 min
• CS(=O)(=O)c1ccc(C(=O)C2C(=O)CCCC2=O)c(Cl)c1COCC(F)(F)F [Tembotrione] = 13.4 min
• CC(CCC(=O)O)C1CCC2C3C(O)CC4CC(O)CCC4(C)C3CCC12C (stereo not drawn) [Chenodeoxycholic acid] = 17.1 min
• CCOP(=S)(OCC)ON=C(C#N)c1ccccc1 [Phoxim] = 15.9 min
• OC(c1ccc(Cl)cc1)(c1cncnc1)c1ccccc1Cl (stereo not drawn) [Fenarimol] = 14.9 min
• CCOc1ccc2ccccc2c1C(=O)NC1C(=O)N2C1SC(C)(C)C2C(=O)O (stereo not drawn) [Nafcillin] = 13.6 min

The compound listed as CCCCc1oc2ccccc2c1C(=O)c1cc(I)c(OCCN(CC)CC)c(I)c1 [Amiodarone] shows LC retention time equal to 16.7 min

The compound listed as CC12CCC(=O)C=C1C1CC1C1C2CCC2(C)C1C1CC1C21CCC(=O)O1 (stereo not drawn) [Drospirenone] shows LC retention time equal to 14.2 min

The compound listed as CCC(C)C1OC2(C=CC1C)CC1CC(CC=C(C)C(OC3CC(OC)C(OC4CC(OC)C(NC)C(C)O4)C(C)O3)C(C)C=CC=C3COC4C(O)C(C)=CC(C(=O)O1)C34O)O2 (stereo not drawn) [Emamectin B1a] shows LC retention time equal to 17.1 min

The compound listed as CC1CCc2cc(F)cc3c(=O)c(C(=O)O)cn1c23 (stereo not drawn) [Flumequine] shows LC retention time equal to 11.8 min

The compound listed as CNCCC(Oc1ccc(C(F)(F)F)cc1)c1ccccc1 (stereo not drawn) [Fluoxetine] shows LC retention time equal to 13.2 min

* * *

procedure_text: RP, Waters ACQUITY UPLC BEH C18, 100 × 1 mm, 1.7 µm, 50 °C, 0.3 mL/min, estimated dead time 0.17 min; A: water + 0.1% formic acid + 20 mM ammonium formate; B: methanol + 0.1% formic acid + 20 mM ammonium formate; gradient (min/%B) 0/0 15/100 21/100 22/0 30/0
setup_conditions: stereoisomer not certain
measured_quantity: LC retention time (min)
# unit: min | format: bare number

The molecule listed as `COCCOCCO` shows LC retention time equal to 5.03

* * *

procedure_text: RP, Waters ACQUITY UPLC BEH C18, 100 × 1 mm, 1.7 µm, 50 °C, 0.3 mL/min, estimated dead time 0.17 min; A: water + 0.1% formic acid + 20 mM ammonium formate; B: methanol + 0.1% formic acid + 20 mM ammonium formate; gradient (min/%B) 0/0 15/100 21/100 22/0 30/0
setup_conditions: stereoisomer not certain
measured_quantity: LC retention time (min)
# unit: min | format: bare number

* CC(C)NCC(O)COc1cccc2[nH]ccc12 (stereo not drawn) | 7.51
* Nc1nc2ccccc2[nH]1 | 6.08
* Cc1cccc(O)c1 | 14.3

The molecule listed as `CCS(=O)(=O)CCSP(=O)(OC)OC` shows LC retention time equal to 7.78

The molecule listed as `CN=CNc1ccc(C)cc1C` shows LC retention time equal to 7.83

The molecule listed as `CCCSP(=O)(OCC)SCCC` shows LC retention time equal to 15

The molecule listed as `Oc1cccc2ccccc12` shows LC retention time equal to 12.5

The molecule listed as C=C1C(=O)OC2CC[N+]3([O-])CC=C(COC(=O)C(C)(O)C(C)C1C)C23 (stereo not drawn) [Senecivernine N-oxide] shows LC retention time equal to 8.69

The molecule listed as Cc1nccn1CC1CCc2c(c3ccccc3n2C)C1=O (stereo not drawn) shows LC retention time equal to 9.64

The molecule listed as `CC1=C(C(=O)Nc2ccccc2)CCCO1` shows LC retention time equal to 11.7

The molecule listed as `Cc1cc(C(C)(C)C)cc(C)c1CC1=NCCN1` shows LC retention time equal to 12.4

The molecule listed as `O=C(O)c1ccccc1O` shows LC retention time equal to 9.72

The molecule listed as `COC(=O)c1ccc(CNS(C)(=O)=O)cc1S(=O)(=O)NC(=O)Nc1nc(OC)cc(OC)n1` shows LC retention time equal to 12.8

The molecule listed as `CNC(=O)ON=C(SC)C(=O)N(C)C` shows LC retention time equal to 7.21

The molecule listed as `Cc1c(Cl)cccc1Nc1ccccc1C(=O)O` shows LC retention time equal to 16.7

The molecule listed as CCCCCC(=O)OC1(C(C)=O)CCC2C3CCC4=CC(=O)CCC4C3CCC21C (stereo not drawn) [Gestonorone capronate] shows LC retention time equal to 16.7

The molecule listed as `Cc1ccnc(NS(=O)(=O)c2ccc(N)cc2)n1` shows LC retention time equal to 7.14

The molecule listed as CN1Cc2c(ccc3c2OCO3)C2C(O)Cc3cc4c(cc3C21)OCO4 (single isomer, unassigned; (+)) [(+)-Chelidonine] shows LC retention time equal to 9.34

The molecule listed as O=C1NC(=O)C2CC=CCC12 (stereo not drawn) [Tetrahydrophthalimide] shows LC retention time equal to 5.38

The molecule listed as `NC(=Nc1ccccc1)Nc1ccccc1` shows LC retention time equal to 8.76

The molecule listed as `O=C(Nc1ccc(F)cc1F)c1cccnc1Oc1cccc(C(F)(F)F)c1` shows LC retention time equal to 16.3

The molecule listed as NC(=O)c1ccc(N)cc1 [4-Aminobenzamide] shows LC retention time equal to 2.09

The molecule listed as CCCCCCCCCOC(=O)c1ccccc1C(=O)OCCCCCCCCC [Dinonylphthalate] shows LC retention time equal to 19.7

The molecule listed as CNC(=O)Oc1cc(C)c(S(C)=O)c(C)c1 (stereo not drawn) [Methiocarb-sulfoxide] shows LC retention time equal to 9.18

The molecule listed as CC1CC(O)C2(O)C13CC(OC(=O)C3O)C(C)(O)C21COC1=O (stereo not drawn) shows LC retention time equal to 7.91

The molecule listed as `Nc1ccc(Cc2ccc(N)c(Cl)c2)cc1Cl` shows LC retention time equal to 13.9

* * *

procedure_text: RP, Waters ACQUITY UPLC BEH C18, 100 × 1 mm, 1.7 µm, 50 °C, 0.3 mL/min, estimated dead time 0.17 min; A: water + 10 mM ammonium bicarbonate; B: 10% water + 90% methanol + 10 mM ammonium bicarbonate; gradient (min/%B) 0/0 15/100 21/100 22/0 30/0
setup_conditions: stereoisomer not certain
Here the recorded LC retention time is given for each entry.
# unit: min | format: bare number

- C=C(c1ccc(C(=O)O)cc1)c1cc2c(cc1C)C(C)(C)CCC2(C)C [Bexarotene]: 17
- CCC(C)(NC(=O)c1cc(Cl)c(C)c(Cl)c1)C(=O)CCl (centres undefined) [Zoxamide]: 16

The compound listed as CC(C)(C)c1cccc(C(C)(C)C)c1O [2,6-di-tert-Butylphenol] shows LC retention time equal to 16.6

The compound listed as Cc1cccc(N(C)C(=S)Oc2ccc3ccccc3c2)c1 [Tolnaftate] shows LC retention time equal to 17

* * *

Here the recorded LC retention time is given for each entry.
procedure_text: RP, Waters ACQUITY UPLC BEH C18, 100 × 1 mm, 1.7 µm, 50 °C, 0.3 mL/min, estimated dead time 0.17 min; A: water + 10 mM ammonium bicarbonate; B: 10% water + 90% methanol + 10 mM ammonium bicarbonate; gradient (min/%B) 0/0 15/100 21/100 22/0 30/0
setup_conditions: stereoisomer not certain
# unit: min | format: bare number

The compound listed as `O=[N+]([O-])c1ccc(O)cc1` shows LC retention time equal to 3.3

The compound listed as CC(N)C12CC3CC(CC(C3)C1)C2 (centres undefined) shows LC retention time equal to 13.9

The compound listed as CC(=O)Nc1cc(Cl)ccc1C [5'-CHLORO-2'-METHYLACETANILIDE] shows LC retention time equal to 11.2

The compound listed as `COc1ccccc1Oc1c(NS(=O)(=O)c2ccc(C(C)(C)C)cc2)nc(-c2ncccn2)nc1OCCO` shows LC retention time equal to 13.4

The compound listed as Cc1ccccc1N=C=O [o-Tolyl isocyanate] shows LC retention time equal to 8.18

The compound listed as c1ccc2sc(SSc3nc4ccccc4s3)nc2c1 [2,2-Dibenzothiazoyl disulfide] shows LC retention time equal to 13.9

The compound listed as CC(=O)C1(O)CCC2C3CC(C)C4=CC(=O)CCC4(C)C3CCC21C (centres undefined) shows LC retention time equal to 15.5

The compound listed as `COc1cc(C)c(C(=O)c2c(OC)ccc(Br)c2C)c(OC)c1OC` shows LC retention time equal to 16.4

The compound listed as CC(C)NCC(O)COc1ccc(COCCOC(C)C)cc1 (centres undefined) shows LC retention time equal to 13.8
